- experimental.system: Human α2δ-1 subunit of Cav2.2 calcium channel (Homo sapiens)
- Sequence (P54289 25-1103): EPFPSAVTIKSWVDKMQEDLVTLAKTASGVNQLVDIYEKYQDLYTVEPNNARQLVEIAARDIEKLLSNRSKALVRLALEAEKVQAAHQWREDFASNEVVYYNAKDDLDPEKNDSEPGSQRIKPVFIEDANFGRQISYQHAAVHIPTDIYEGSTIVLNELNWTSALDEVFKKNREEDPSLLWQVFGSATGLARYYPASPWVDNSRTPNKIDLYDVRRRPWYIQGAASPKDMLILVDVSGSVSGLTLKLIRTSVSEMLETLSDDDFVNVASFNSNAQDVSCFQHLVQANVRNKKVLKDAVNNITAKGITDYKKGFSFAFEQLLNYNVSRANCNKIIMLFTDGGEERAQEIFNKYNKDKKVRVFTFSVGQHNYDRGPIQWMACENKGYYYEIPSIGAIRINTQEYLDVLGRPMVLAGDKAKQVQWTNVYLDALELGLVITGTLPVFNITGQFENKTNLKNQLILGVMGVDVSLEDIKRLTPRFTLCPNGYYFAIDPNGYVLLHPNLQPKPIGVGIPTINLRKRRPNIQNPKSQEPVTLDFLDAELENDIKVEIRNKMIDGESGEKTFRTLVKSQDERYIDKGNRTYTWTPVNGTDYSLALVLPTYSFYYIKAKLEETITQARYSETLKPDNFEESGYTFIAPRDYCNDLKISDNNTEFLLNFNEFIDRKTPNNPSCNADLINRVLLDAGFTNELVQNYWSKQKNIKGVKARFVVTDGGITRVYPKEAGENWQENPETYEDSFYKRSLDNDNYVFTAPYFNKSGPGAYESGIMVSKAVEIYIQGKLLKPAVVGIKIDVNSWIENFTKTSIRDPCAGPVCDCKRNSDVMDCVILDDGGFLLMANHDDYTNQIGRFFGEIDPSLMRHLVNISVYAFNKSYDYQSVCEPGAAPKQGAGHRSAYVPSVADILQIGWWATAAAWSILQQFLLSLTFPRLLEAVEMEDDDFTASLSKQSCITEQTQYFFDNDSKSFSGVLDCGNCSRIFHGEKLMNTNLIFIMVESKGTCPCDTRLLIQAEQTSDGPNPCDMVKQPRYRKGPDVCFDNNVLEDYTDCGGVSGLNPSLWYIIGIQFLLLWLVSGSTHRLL
- protocol.summary: Human α2δ-1 subunit of Cav2.2 calcium channel assay ([3H]-gabapentin binding)
- measurement.parameters: binding to the α2δ-1 subunit of voltage-gated calcium channels expressed as Ki; + also covers inhibition between 1% and 50%
test.readout: Ki

1. Cc1nn2c(C3CCCN(Cc4ccc(Cl)cc4)C3)ccnc2c1CNCCCN1CCCC1=O (stereo not shown) :: 0.5 to 5 µM
2. CN[C@H]1CCN(c2cc3nccc([C@@H]4CCCN(Cc5ccccc5)C4)n3n2)C1 :: 0.5 to 5 µM
3. c1ccc(CN2CCCC(c3ccnc4cc(-c5ccccc5)nn34)C2)cc1 (stereo not shown) :: > 5 µM
4. COc1cnccc1-c1cc2nccc(C3CCCN(Cc4ccccc4)C3)n2n1 (stereo not shown) :: 0.5 to 5 µM

FYI, the data here is from patent US12617797B2.
